Test system: B6C3F1 mice, ip Sarcoma M5076, median survival T/C
Experiment: NCI In Vivo Anticancer Drug Screen. Data for tumor model Sarcoma M5076 (intraperitoneal) in B6C3F1 mice
Settings: endpoint: median survival time; dose: 40.0 mg/kg/injection; schedule: Q04DX004 (ip); vehicle: saline
Toxic doses and inconclusive results are not listed. How the source made its calls: active means survival T/C of 150% or more; inactive means T/C below 125% in these data.
Select the correct class. Options are True = active, False = inactive and nothing else.

[ask] For COc1cc2c(c(OC)c1OC)-c1ccc(OC)c(=O)cc1[C@@H](N)CC2 , what call appears in the results of this test?
[reply] True

[ask] For Cc1c(N)nc([C@H](CC(N)=O)NC[C@H](N)C(N)=O)nc1C(=O)N[C@H](C(=O)N[C@H](C)[C@@H](O)[C@H](C)C(=O)N[C@H](C(=O)NCCc1nc(-c2nc(C(=O)NCCC[S+](C)C)cs2)cs1)[C@@H](C)O)C(OC1OC(CO)C(O)C(O)C1OC1OC(CO)C(O)C(OC(N)=O)C1O)c1cnc[nH]1 (some centres undefined) , what call appears in the results of this test?
[reply] False

[ask] For Cc1c2ccccc2cc2cccc[n+]12 , what call appears in the results of this test?
[reply] False

[ask] For CN(C)C=O , what call appears in the results of this test?
[reply] False
